- Test system: Glutamate receptor ionotropic, NMDA 3A (GRIN3A) ligand-binding domain
- ASSAY METHOD TEXT: binders of NR3A ligand-binding domain, primary screen, biophysical, differential scanning fluorimetry, uHTS (AID 1259313)
- COND: NR3A LBD differential scanning fluorimetry, at 25 µM, stronger effect = higher value, 0% = protein alone, 100% = glycine-bound protein
Hit rate of the full screen: of about 340,000 compounds, about 8,500 (2.5%) were called active. Only a selection was taken, and actives are over-represented in it overall.
MEASUREMENT NAME: Tm shift relative to glycine control (%)
Use % as the unit, but write only the number.

// known answers, use as guide
O=C(/C=C/c1ccccc1Cl)Nc1ccc(S(=O)(=O)Nc2ncccn2)cc1 :: 3.4
Cc1ccc(N2C(=O)CN=C2Nc2nc(C)cc(C)n2)cc1 :: -1.23
CSCCC(NC(=O)c1ccc(Cl)cc1Cl)C(=O)NNC(=O)c1csc(N2CCOCC2)n1 (configuration not stated) :: -1.92

Now let's try a different one.
Look at this molecule and give its reported Tm shift relative to glycine control. COc1ccc(-n2nc(C(=O)NCC(=O)N3CCCCCC3)c3ccccc3c2=O)cc1Cl
-2.28

###

- Tested on: Glutamate receptor ionotropic, NMDA 3A (GRIN3A) ligand-binding domain
- ASSAY METHOD TEXT: binders of NR3A ligand-binding domain, primary screen, biophysical, differential scanning fluorimetry, uHTS (AID 1259313)
- COND: NR3A LBD differential scanning fluorimetry, at 25 µM, 0% = protein alone, 100% = glycine-bound protein
Screen size: about 340,000 compounds; about 8,500 (2.5%) were called active.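 Rule for the calls: active = melting temperature shift of at least 10% of the positive control shift, at one fixed dose; inactive = the rest.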 The entries come from a sample that favours actives as a whole.
Answer with one of the outcomes Yes = active, No = inactive

Some entries whose results are on file:
COc1cc(C(=O)CCc2ccc3c(c2)OCO3)cc(OC)c1OC :: No
COc1ccc([N+](=O)[O-])cc1N(CC(O)CN(CC(C)C)CC(C)C)S(=O)(=O)c1ccc(C)cc1 (stereo unspecified) :: No
CNC1(c2nnnn2-c2c(C)cccc2C)CCOC(C)(C)C1 (stereo unspecified) :: No

Name the outcome recorded for CCOC(=O)C1=CN(Cc2ccc(Br)cc2)S(=O)(=O)N(C)C1C (stereo unspecified) in the assay.
Yes

Now give it for CCOC(=O)C1=CN(Cc2ccc(Br)cc2)S(=O)(=O)NC1C (stereo unspecified) too.
No

Now give it for COc1ccc(C(=O)NC(Cc2ccc(OC(=O)c3ccc(OC)cc3)cc2)C(=O)O)cc1 (stereo unspecified) too.
No

###

- Test system: Glutamate receptor ionotropic, NMDA 3A (GRIN3A) ligand-binding domain
- ASSAY METHOD TEXT: binders of NR3A ligand-binding domain, primary screen, biophysical, differential scanning fluorimetry, uHTS (AID 1259313)
- COND: NR3A LBD differential scanning fluorimetry, at 25 µM, 0% = protein alone, 100% = glycine-bound protein
The campaign covered roughly 340,000 compounds. About 8,500 (2.5%) were called active.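 Rule for the calls: active = melting temperature shift of at least 10% of the positive control shift, at one fixed dose; inactive = the rest.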 Only a selection was taken, and actives are over-represented in it overall.
Answer with one of the outcomes yes (1) for active, no (0) for inactive

CC(=O)Nc1ccc(S(=O)(=O)NC2(C(F)(F)F)C(=O)NC(C)=C2C#N)cc1 (stereo not given) :: no (0)
COc1ccc(CCn2nnnc2C(c2ccccc2)N2CCN(C)CC2)cc1OC (stereo not given) :: yes (1)
Cc1cc(C)c(C)c(S(=O)(=O)N2CCN(C(=O)c3ccc4c(=O)n5c(nc4c3)CCC5)CC2)c1C :: no (0)

Name the outcome recorded for CC1CN(C(=S)Nc2ccc(S(N)(=O)=O)cc2)CC(C)O1 (stereo not given) in the assay.
no (0)

Now give it for CCN(C(=O)COC(=O)CCOc1cccc(C)c1)c1c(N)n(Cc2ccccc2)c(=O)[nH]c1=O too.
no (0)

###

- Tested on: Glutamate receptor ionotropic, NMDA 3A (GRIN3A) ligand-binding domain
- ASSAY METHOD TEXT: binders of NR3A ligand-binding domain, primary screen, biophysical, differential scanning fluorimetry, uHTS (AID 1259313)
- COND: NR3A LBD differential scanning fluorimetry, at 25 µM, stronger effect = higher value, 0% = protein alone, 100% = glycine-bound protein
The campaign covered roughly 340,000 compounds. About 8,500 (2.5%) were called active. Only a selection was taken, and actives are over-represented in it overall.
MEASUREMENT NAME: Tm shift relative to glycine control (%)
Use % as the unit, but write only the number.

// known answers, use as guide
N#C/C(=C(/O)Cc1cccc2ccccc12)c1nc2ccccc2s1 :: 19.3
C/C(=N\N)c1c(-c2ccccc2)c2cc(Br)ccc2[nH]c1=O :: -2.09
O=C(Cc1c[nH]c2ccccc12)N/N=C/c1cccc(F)c1 :: -4.78
O=C1NC(c2ccncc2)Nc2sc3c(c21)CCCC3 (centres undefined) :: 0.51
CCOC(=O)C1=C(CN2CCCCCC2)NC(=O)NC1c1cccc([N+](=O)[O-])c1 (centres undefined) :: 0.15

Look at this molecule and give its reported Tm shift relative to glycine control. Cc1ccc(-c2nnc(C)c(N3CC(C)OC(C)C3)n2)cc1 (centres undefined)
-2.74

Now give it for Cc1ccc2occ(/C=N/NC(=O)c3ccccc3C)c(=O)c2c1 too.
-0.75

Now give it for COc1cc(C#Cc2ccc3cc(CCCO)oc(=O)c3c2)cc(OC)c1 too.
-0.81

Now give it for CCOC(=O)c1sc(-c2cccc([N+](=O)[O-])c2)cc1N too.
20.4

Now give it for CCSc1nsc(NC(=O)Nc2cccc(C(C)=O)c2)n1 too.
0.77

Now give it for O=C(N/N=C/c1c[nH]c2ccccc12)c1ccccc1O too.
37

###

- Tested on: Glutamate receptor ionotropic, NMDA 3A (GRIN3A) ligand-binding domain
- ASSAY METHOD TEXT: binders of NR3A ligand-binding domain, primary screen, biophysical, differential scanning fluorimetry, uHTS (AID 1259313)
- COND: NR3A LBD differential scanning fluorimetry, at 25 µM, stronger effect = higher value, 0% = protein alone, 100% = glycine-bound protein
The campaign covered roughly 340,000 compounds. About 8,500 (2.5%) were called active. The sample as a whole holds a higher share of actives than the screen did.
Property: Tm shift relative to glycine control; scope: individual compounds

// known answers, use as guide
O=C(Nc1ccc(NC(=O)c2cccs2)cc1)c1ccc2ccccc2c1 :: 25.1% (active)
COc1ccc(/C=C/C(=O)OCC(=O)Nc2cccc(Oc3ccccc3)c2)c(OC)c1 :: 1.79% (inactive)
CC(Oc1cccc(NC(=O)c2cccs2)c1)C(=O)c1ccccc1 (centres undefined) :: -12.8% (inactive)

Look at this compound and give its reported Tm shift relative to glycine control. O=C(C1CCCN(S(=O)(=O)c2ccccc2)C1)N1CCN(c2ccc(F)cc2)CC1 (centres undefined)
-0.26% (inactive)

###

- System: Glutamate receptor ionotropic, NMDA 3A (GRIN3A) ligand-binding domain
- ASSAY METHOD TEXT: binders of NR3A ligand-binding domain, primary screen, biophysical, differential scanning fluorimetry, uHTS (AID 1259313)
- COND: NR3A LBD differential scanning fluorimetry, at 25 µM, stronger effect = higher value, 0% = protein alone, 100% = glycine-bound protein
Screen size: about 340,000 compounds; about 8,500 (2.5%) were called active. What follows is part of a selection rich in actives, with near analogues and random picks from the rest.
Property: Tm shift relative to glycine control; scope: individual compounds
Use % as the unit, but write only the number.

Cc1cc(NC(=O)COc2ccc([N+](=O)[O-])cc2)no1 :: 1.03

Look at this compound and give its reported Tm shift relative to glycine control. CCOn1c(SC(C)C)nc2ccccc2c1=O
-0.18

Now give it for Cc1cc(Cl)ccc1OCCCC(=O)NCc1ccccn1 too.
-3.24

Now give it for COc1cccc(CC2(CO)CCCN(Cc3nc(-c4cccs4)oc3C)C2)c1 (stereo not drawn) too.
-1.72

Now give it for Nc1nc(SCC(=O)Nc2ccc(Cl)cc2C(F)(F)F)n[nH]1 too.
0.67

Now give it for O=C(Oc1ccc(F)cc1)N1CCOCC1 too.
1.08

###

- Test system: Glutamate receptor ionotropic, NMDA 3A (GRIN3A) ligand-binding domain
- ASSAY METHOD TEXT: binders of NR3A ligand-binding domain, primary screen, biophysical, differential scanning fluorimetry, uHTS (AID 1259313)
- COND: NR3A LBD differential scanning fluorimetry, at 25 µM, stronger effect = higher value, 0% = protein alone, 100% = glycine-bound protein
Out of some 340,000 compounds screened, about 8,500 (2.5%) were called active. What follows is part of a selection rich in actives, with near analogues and random picks from the rest.
MEASUREMENT NAME: Tm shift relative to glycine control (%)
Use % as the unit, but write only the number.

// known answers, use as guide
CCN(c1ccccc1)S(=O)(=O)c1ccc(OCC(=O)N2CCCC2)cc1 :: -0.92
Cn1nc(C(=O)OCC(=O)N(Cc2ccccc2)C(C)(C)C)c2ccccc2c1=O :: 0.45

Look at this compound and give its reported Tm shift relative to glycine control. COC(=O)C1=C(C)N(C)C(=S)NC1c1ccccc1 (stereo not drawn)
1.46
